B1: Pistol ribozyme (parent)
chain: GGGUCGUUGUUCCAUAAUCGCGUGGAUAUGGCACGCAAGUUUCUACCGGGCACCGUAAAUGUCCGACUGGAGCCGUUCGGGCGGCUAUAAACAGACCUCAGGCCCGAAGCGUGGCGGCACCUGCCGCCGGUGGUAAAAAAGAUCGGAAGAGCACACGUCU

Variants of: B1
Test: aptazyme ON/OFF ratio, guanine; higher = stronger switching; co-transcriptional cleavage with and without guanine
This listing pairs variants with measured aptazyme ON/OFF ratio.
measurement.name: aptazyme ON/OFF ratio

[[record]]
mutation_id = "U7G U8C G9U U10C U11A C12A"
measurement_name = "aptazyme ON/OFF ratio"
experimental_result = 2.7

[[record]]
mutation_id = "U7C U8G G9C U11C C12A"
measurement_name = "aptazyme ON/OFF ratio"
experimental_result = 2.71

[[record]]
mutation_id = "U7C G9A U10G U11C C12G C13U"
measurement_name = "aptazyme ON/OFF ratio"
experimental_result = 1.11

[[record]]
mutation_id = "U8C G9U U10G C12U C13A"
measurement_name = "aptazyme ON/OFF ratio"
experimental_result = 1.28

[[record]]
mutation_id = "U8A G9C U10C C12G"
measurement_name = "aptazyme ON/OFF ratio"
experimental_result = 1.05

[[record]]
mutation_id = "U7C G9A C12A C13A"
measurement_name = "aptazyme ON/OFF ratio"
experimental_result = 1.24

[[record]]
mutation_id = "U7A U8C G9C U10C U11C C12A"
measurement_name = "aptazyme ON/OFF ratio"
experimental_result = 1.05

[[record]]
mutation_id = "U7G U8G G9C U10C U11A C12G C13A"
measurement_name = "aptazyme ON/OFF ratio"
experimental_result = 1.28

[[record]]
mutation_id = "U7C U8G G9U U10C U11C C12A C13G"
measurement_name = "aptazyme ON/OFF ratio"
experimental_result = 1.19

[[record]]
mutation_id = "U7G U8A G9A U11C C12G C13U"
measurement_name = "aptazyme ON/OFF ratio"
experimental_result = 1.1

[[record]]
mutation_id = "G9A U10C U11A C12G C13U"
measurement_name = "aptazyme ON/OFF ratio"
experimental_result = 1.36

[[record]]
mutation_id = "U8A U10A U11A C12A C13G"
measurement_name = "aptazyme ON/OFF ratio"
experimental_result = 1.04

[[record]]
mutation_id = "U7G G9U U11C C12A C13A"
measurement_name = "aptazyme ON/OFF ratio"
experimental_result = 1.42

[[record]]
mutation_id = "U7C U8G G9C U10G U11C C12A C13G"
measurement_name = "aptazyme ON/OFF ratio"
experimental_result = 1.16

[[record]]
mutation_id = "U7G U8A G9C U11C C12A C13G"
measurement_name = "aptazyme ON/OFF ratio"
experimental_result = 1.04

[[record]]
mutation_id = "U7A U8G G9U U11G C12G C13G"
measurement_name = "aptazyme ON/OFF ratio"
experimental_result = 1.19

[[record]]
mutation_id = "U7G U8C U10C U11G C12A C13A"
measurement_name = "aptazyme ON/OFF ratio"
experimental_result = 1.16

[[record]]
mutation_id = "U7C G9C U10G U11G C13A"
measurement_name = "aptazyme ON/OFF ratio"
experimental_result = 1.1

[[record]]
mutation_id = "U8G G9A U10A U11A C12A"
measurement_name = "aptazyme ON/OFF ratio"
experimental_result = 1.21

[[record]]
mutation_id = "U7A U8A G9C U11C C13A"
measurement_name = "aptazyme ON/OFF ratio"
experimental_result = 1.08

[[record]]
mutation_id = "U7C U8G G9C U10G U11A C12G C13G"
measurement_name = "aptazyme ON/OFF ratio"
experimental_result = 1.21

[[record]]
mutation_id = "U7A U8C G9U U10C U11C C12G C13U"
measurement_name = "aptazyme ON/OFF ratio"
experimental_result = 1.04

[[record]]
mutation_id = "U8A G9A U10G U11A C13G"
measurement_name = "aptazyme ON/OFF ratio"
experimental_result = 1.02

[[record]]
mutation_id = "U11A C12U"
measurement_name = "aptazyme ON/OFF ratio"
experimental_result = 1.64

[[record]]
mutation_id = "U8A U11C C12G C13G"
measurement_name = "aptazyme ON/OFF ratio"
experimental_result = 1.32

[[record]]
mutation_id = "U7G U8C G9C C13G"
measurement_name = "aptazyme ON/OFF ratio"
experimental_result = 1.05

[[record]]
mutation_id = "U8A G9U U10C U11A"
measurement_name = "aptazyme ON/OFF ratio"
experimental_result = 1.34

[[record]]
mutation_id = "U7G G9A U10C U11A C13A"
measurement_name = "aptazyme ON/OFF ratio"
experimental_result = 1.17

[[record]]
mutation_id = "U7C U8G G9A U10G U11G C12G"
measurement_name = "aptazyme ON/OFF ratio"
experimental_result = 1.27

[[record]]
mutation_id = "U7G U8A G9U U10A U11C C12U C13G"
measurement_name = "aptazyme ON/OFF ratio"
experimental_result = 1.07

[[record]]
mutation_id = "U7G U8C G9C U10C U11A C12A"
measurement_name = "aptazyme ON/OFF ratio"
experimental_result = 1.06

[[record]]
mutation_id = "U8A G9C U11C C12G C13A"
measurement_name = "aptazyme ON/OFF ratio"
experimental_result = 1.07

[[record]]
mutation_id = "U7A U8G G9U U10G U11A C12A C13A"
measurement_name = "aptazyme ON/OFF ratio"
experimental_result = 1.16

[[record]]
mutation_id = "U7G U8G G9C U11A C13G"
measurement_name = "aptazyme ON/OFF ratio"
experimental_result = 1.04

[[record]]
mutation_id = "U7C G9U U10A U11G C12U C13U"
measurement_name = "aptazyme ON/OFF ratio"
experimental_result = 1.18

[[record]]
mutation_id = "U8A G9C"
measurement_name = "aptazyme ON/OFF ratio"
experimental_result = 1.2

[[record]]
mutation_id = "U7A G9C U10C U11G C12G C13U"
measurement_name = "aptazyme ON/OFF ratio"
experimental_result = 1.05

[[record]]
mutation_id = "U7A U8G U10A U11C C12A C13U"
measurement_name = "aptazyme ON/OFF ratio"
experimental_result = 1.53

[[record]]
mutation_id = "U7C U8C G9C U10A U11A C12G C13G"
measurement_name = "aptazyme ON/OFF ratio"
experimental_result = 1.19

[[record]]
mutation_id = "U7A G9C U10G U11C C12U C13A"
measurement_name = "aptazyme ON/OFF ratio"
experimental_result = 1.05

[[record]]
mutation_id = "U8A U10A U11A C12U C13G"
measurement_name = "aptazyme ON/OFF ratio"
experimental_result = 1.09

[[record]]
mutation_id = "U7C U8G G9U U10G C12G C13A"
measurement_name = "aptazyme ON/OFF ratio"
experimental_result = 1.07

[[record]]
mutation_id = "U7G U8G G9C C12G C13U"
measurement_name = "aptazyme ON/OFF ratio"
experimental_result = 1.35

[[record]]
mutation_id = "U7C U8C G9U U10C U11C C12A"
measurement_name = "aptazyme ON/OFF ratio"
experimental_result = 1.22

[[record]]
mutation_id = "G9C U10G C13G"
measurement_name = "aptazyme ON/OFF ratio"
experimental_result = 1.1

[[record]]
mutation_id = "U7A U8G G9C U10C U11G C13U"
measurement_name = "aptazyme ON/OFF ratio"
experimental_result = 1.23


Data provenance: the RNAGym collection of RNA variant scans (doi:10.1021/acssynbio.7b00057)
